TEST READOUT: melting point (°C)

COc1ccccc1-c1nnc2n1NC(c1ccc([N+](=O)[O-])cc1)S2 (stereo unspecified)    196
O=C(Nc1ccccc1SC(=O)c1ccccc1)c1ccccc1    152

(1) Clc1ccc(C=NC2Nc3ccccc3N2)cc1
(2) CCCN(CCC)C(=O)COC(=O)c1ccccc1
Which entry has a larger number for melting point, 1 or 2 ? Please respond with the label that marks your chosen entry.
1

---

TEST READOUT: melting point (°C)

(A) CC(=O)c1ccc(O)c(C(F)(F)F)c1
(B) O=C1C=CC(=O)C1
(C) O=C(Cc1ccc(-c2ccccc2)cc1)Nc1ccccn1
Rank the compounds listed above in increasing order of melting point. Answer by listing the labels in the order asked for.
B, C, A

---

TEST READOUT: melting point (°C)

Consider the worked cases shown below.
c1ccc(P(CCCCCP(c2ccccc2)c2ccccc2)c2ccccc2)cc1    47
CC(Oc1c(Cl)cccc1Cl)C1=NCCN1 (stereo not drawn)    126
CC1(C)OC(=O)C2(Cc3ccccc3C2)C(=O)O1    158
CC(c1ncncc1F)C(O)(Cn1cncn1)c1ccc(F)cc1F (stereo not drawn)    128

(A) Cc1c(C)c(C)c(C(=O)c2ccccc2)c(C)c1C
(B) Fc1ccccc1Cl
(C) CCCCCCCCSCCCCCCCC
(D) O=C1CSc2cc(Cl)ccc2N1
(E) CCOc1ccc(Cl)cc1
Could you please sort these 5 entries by melting point from high to low? Answer by listing the labels in the order asked for.
D, A, E, C, B

---

TEST READOUT: melting point (°C)

(A) O=C(Oc1ccc(OC(=O)c2ccccc2)cc1)c1ccccc1
(B) COC(=O)[C@@H](CC(=O)O)C1CCCCC1
From the items above, decide which of A and B has the lower melting point reading. Please respond with the label that marks your chosen entry.
B

(1) CCN(CCO)c1ccccc1
(2) CC1C=CCCC1 (stereo not drawn)
(3) Fc1ccc2nc(Cl)sc2c1
Write the entries in order, lowest recorded melting point first. Answer by listing the labels in the order asked for.
2, 1, 3

(A) O=C(Nc1ccccc1/C=C/c1ccccc1)c1ccccc1
(B) CCCCCCCCCCCC(=O)Cl
From the items above, decide which of A and B has the lower melting point reading. Please respond with the label that marks your chosen entry.
B
(B: -17 °C, A: 168 °C)

---

TEST READOUT: melting point (°C)

Consider the worked cases shown below.
c1c2c(cc3c1CCCC3)CCCC2    78
CCCOc1ccccc1OCC(O)CO (stereo unspecified)    70
CCCCCCC(C)(C)S    -43.1
BrC(=C(\Br)c1ccccc1)/C(Br)=C(\Br)c1ccccc1    236

(1) Brc1cccc2c(/C=N/Nc3ccccc3)cccc12
(2) CC(=O)Oc1cn(C(C)=O)c2ccc(Br)c(Cl)c12
Which entry has a larger number for melting point, 1 or 2 ? Please respond with the label that marks your chosen entry.
2
(2: 166 °C, 1: 105 °C)

(P) Cn1cc(C(=O)Nc2ccc(F)cc2-c2ccc(Cl)c(Cl)c2)c(C(F)F)n1
(Q) O=C1CCCCCCCCC1O (stereo unspecified)
(R) O=[N+]([O-])c1ccc(-c2nnc3n2CN(c2ccc([N+](=O)[O-])cc2)CS3)cc1
Write the entries in order, lowest recorded melting point first. Answer by listing the labels in the order asked for.
Q, P, R
(Q: 42 °C, P: 147 °C, R: 320 °C)

(P) CCC(c1ccc(O)c(C)c1)C(CC)c1ccc(O)c(C)c1 (stereo unspecified)
(Q) C=CC=CC(=O)O
(R) O=C(c1ccc(F)cc1)C1CC1
Could you please sort these 3 entries by melting point from high to low? Answer by listing the labels in the order asked for.
P, Q, R
(P: 145 °C, Q: 79 °C, R: -15 °C)

(1) OCCN(CCO)c1nc(N2CCCCC2)c2nc(N(CCO)CCO)ncc2n1
(2) CC(C)(C)OC(=O)NC1CCNC1 (stereo unspecified)
(3) c1ccc(Cc2cccnc2)cc1
(4) O=C(O)Cc1c(F)c(F)c(F)c(F)c1F
Write the entries in order, lowest recorded melting point first. Answer by listing the labels in the order asked for.
3, 2, 4, 1
(3: 34 °C, 2: 67 °C, 4: 109 °C, 1: 158 °C)

---

TEST READOUT: melting point (°C)

(1) Cc1cc(C)c(O)c(C)c1C
(2) CC1CC=C/C1=N\Nc1ccc([N+](=O)[O-])cc1[N+](=O)[O-] (stereo unspecified)
(3) FC(F)(F)C(F)(F)C(F)(F)C(F)(F)C(F)(F)F
Rank the compounds listed above in increasing order of melting point. Answer by listing the labels in the order asked for.
3, 1, 2
(3: -100 °C, 1: 80.5 °C, 2: 180 °C)

---

TEST READOUT: melting point (°C)

Consider the worked cases shown below.
N=c1oc2ccccc2cc1-c1nc2ccccc2s1    186
CCCCC(N)C(=O)O (stereo unspecified)    300
Cc1ccc(C(c2ccc(C)o2)c2cc([N+](=O)[O-])cc(Br)c2O)o1    153

(A) CC(CC(=O)O)C(=O)O (stereo unspecified)
(B) Cc1ccc(Cl)c(C)c1
(C) Oc1cc(Br)ccc1Cl
Could you please sort these 3 entries by melting point from high to low? Answer by listing the labels in the order asked for.
A, C, B
(A: 118 °C, C: 57 °C, B: -32.5 °C)

---

TEST READOUT: melting point (°C)

Consider the worked cases shown below.
Cc1cc2c(cc1C)C(=O)c1ccccc1C2=O    211
O=C1C(C(O)c2ccc(O)cc2)C(C(F)(F)F)=NN1c1ccccc1 (stereo unspecified)    211
COc1ccc(C(=O)c2nn(-c3ccccc3)/c(=N\N=Cc3ccccc3Cl)s2)cc1    181

(I) O=C(O)c1ccc2[nH]ccc2c1
(II) CCCCCCCCC(Br)C(=O)O (stereo unspecified)
Which entry has a larger number for melting point, I or II ? Please respond with the label that marks your chosen entry.
I

---

TEST READOUT: melting point (°C)

Consider the worked cases shown below.
CCCCOCN(C(=O)CCl)c1c(CC)cccc1CC    -0.55
Nc1cc(C(F)(F)F)cc(C(F)(F)F)c1Br    35

(P) O=C(Nc1ccccc1)C1Cc2ccccc21 (configuration not stated)
(Q) Cc1c(Br)cccc1[N+](=O)[O-]
Which entry has a larger number for melting point, P or Q ? Please respond with the label that marks your chosen entry.
P
(P: 161 °C, Q: 40 °C)

---

TEST READOUT: melting point (°C)

Consider the worked cases shown below.
NCc1ccc(N2CCOCC2)cc1    50
COC(=O)c1ccc(Cl)cc1[N+](=O)[O-]    44
CC(O)CC(=O)O (stereo unspecified)    49

(1) O=C1NN=C(C(F)(F)F)C1=NNc1ccccc1C(=O)O
(2) Cc1ccc2cnccc2c1
Which entry has a larger number for melting point, 1 or 2 ? Please respond with the label that marks your chosen entry.
1

(I) N#Cc1cc2ccccc2oc1=N
(II) Cc1ccc2ccc(=O)oc2c1
Which entry has a larger number for melting point, I or II ? Please respond with the label that marks your chosen entry.
I

---

TEST READOUT: melting point (°C)

Consider the worked cases shown below.
COc1ccc2c(c1)=NC1=C(C)NCCC=21    230
CCCCCCOc1ccccc1C(N)=O    71
COc1ccc(N=C=O)c(OC)c1    32
Cc1cccc(NC(=O)c2cncc(Cl)n2)c1    84
O=C(O)Cc1c[nH]c2ccccc12    169
CC(=O)NS(=O)(=O)c1ccc(NC(=O)c2ccccc2C(=O)O)cc1    196

(1) CCOC(=O)C1=C(c2ccccc2)NC(=O)NC1c1ccccc1 (stereo unspecified)
(2) CC=CC=C(C)C
(3) Clc1ccc(COC(Cn2ccnc2)c2ccc(Cl)cc2Cl)cc1 (stereo unspecified)
(4) Cc1cc(C2(c3ccc(O)c(C)c3)OS(=O)(=O)c3ccccc32)ccc1O
(5) CC(c1ccccc1)C(C)(C)O (stereo unspecified)
Could you please sort these 5 entries by melting point from high to low? Answer by listing the labels in the order asked for.
4, 1, 3, 5, 2
(4: 290 °C, 1: 172 °C, 3: 86.8 °C, 5: 46 °C, 2: -74.2 °C)

(P) O=C(O)c1ccnc(Cl)c1
(Q) CC(C)OC(=O)C(C)N(C(=O)c1ccccc1)c1ccc(F)c(Cl)c1 (stereo unspecified)
Which entry has a larger number for melting point, P or Q ? Please respond with the label that marks your chosen entry.
P

(1) O=C(O)C=Cc1cccc(C(Br)=C(Br)C(=O)O)c1
(2) Cc1nn(Cc2ccccc2)c(N)c1C#N
From the items above, decide which of 1 and 2 has the lower melting point reading. Please respond with the label that marks your chosen entry.
2

---

The entries below are paired with their reported melting point.

Consider the worked cases shown below.
CCCCCCCCCCCCCCCC(C)=O    48 °C
CC(=O)Oc1ccc(C(C)(C)c2ccc(OC(C)=O)cc2)cc1    86 to 91 °C
Cn1c(CO)cc2sccc21    103 to 104 °C
c1ccc(-c2noc(-c3ccccc3)n2)cc1    109 °C

Look up melting point: CC(C)NC(=O)c1cc(F)c(Cl)nc1Cl
159 to 161 °C

Thanks! And COc1ccc(C(c2c(O)cc(C)oc2=O)c2c(O)cc(C)oc2=O)cc1 ?
163 to 165 °C

Thanks! And CC(=O)N1CCc2ccc(N)cc21 ?
182 to 185 °C

Thanks! And CC(=O)c1ccc(N2CCOCC2)cc1 ?
94 to 98 °C

Thanks! And CC(=O)c1ccc(C2CC2Cl)cc1 (configuration not stated) ?
45 °C

Thanks! And CC(=O)Nc1ccc(-c2cc(C(=O)O)c3ccccc3n2)cc1 ?
274 to 276 °C

Thanks! And O=C(CCl)Nc1ccc(F)cc1F ?
79 to 81 °C

Thanks! And O=S(=O)(O)CCCN1CCOCC1 ?
284 °C
